Molecular target: B-Raf (Homo sapiens (Human))
Sequence (P15056 whole entry): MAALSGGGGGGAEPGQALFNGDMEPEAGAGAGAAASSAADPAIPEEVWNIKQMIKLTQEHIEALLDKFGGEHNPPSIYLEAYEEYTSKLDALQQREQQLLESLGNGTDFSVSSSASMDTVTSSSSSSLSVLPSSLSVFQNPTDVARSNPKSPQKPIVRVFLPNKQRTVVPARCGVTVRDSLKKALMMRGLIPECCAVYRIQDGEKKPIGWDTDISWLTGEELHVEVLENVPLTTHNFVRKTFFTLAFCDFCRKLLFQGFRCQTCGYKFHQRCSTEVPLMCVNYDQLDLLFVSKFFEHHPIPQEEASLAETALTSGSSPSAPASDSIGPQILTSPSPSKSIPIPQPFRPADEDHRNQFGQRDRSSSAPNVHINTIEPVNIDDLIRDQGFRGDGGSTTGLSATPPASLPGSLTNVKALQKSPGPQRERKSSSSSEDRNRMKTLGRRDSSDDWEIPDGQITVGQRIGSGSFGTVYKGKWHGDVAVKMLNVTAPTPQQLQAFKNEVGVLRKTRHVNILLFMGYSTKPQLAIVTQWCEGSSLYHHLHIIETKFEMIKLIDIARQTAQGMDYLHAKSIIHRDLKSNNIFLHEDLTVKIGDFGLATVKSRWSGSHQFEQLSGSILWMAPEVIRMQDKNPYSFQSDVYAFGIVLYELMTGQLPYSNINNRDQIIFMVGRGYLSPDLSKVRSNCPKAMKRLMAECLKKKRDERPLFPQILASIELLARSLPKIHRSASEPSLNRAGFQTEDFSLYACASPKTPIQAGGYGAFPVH
Assay: Raf kinase assay (B-Raf), [33P] incorporation into MEK1(K97R)
Assay type: biochemical
Settings: 1.0 μM compound; read-out: B-Raf inhibition at 1.0 μM
recorded_metric: inhibition at 1 µM (%)

COc1cc(-c2ccc3ncnc(Nc4cccc(OC(F)F)c4)c3c2)ccc1O [Compound 118] : 68.2
COc1cc(-c2ccc3ncnc(Nc4cc(O)ccc4F)c3c2)ccc1O [Compound 58] : 92.6
COc1cc(-c2ccc3ncnc(Nc4ccc5[nH]nnc5c4)c3c2)ccc1O [Compound 66] : 59.3
COc1cccc(-c2ccc3ncnc(Nc4cccc5[nH]ncc45)c3c2)c1F [Compound 74] : 91.2
Fc1cccc(-c2ccc3ncnc(Nc4cccc5[nH]ncc45)c3c2)c1 [Compound 81] : 79.1
CS(=O)(=O)Nc1cccc(-c2ccc3ncnc(Nc4cccc5[nH]ncc45)c3c2)c1 [Compound 95] : 70.9
COc1cc(-c2ccc3ncnc(Nc4cccc5[nH]ncc45)c3c2)ccc1F [Compound 84] : 83.1
COc1ccc(-c2ccc3ncnc(Nc4cccc5[nH]ncc45)c3c2)cc1C=O [Compound 98] : 92.5
NC(=O)c1cccc(-c2ccc3ncnc(Nc4cccc5[nH]ncc45)c3c2)c1 [Compound 97] : 86.6
COc1ccc(-c2ccc3ncnc(Nc4cccc5[nH]ncc45)c3c2)cc1OC [Compound 89] : 80.4
Oc1cccc(Nc2ncnc3ccc(-c4cccc(O)c4)cc23)c1 [Compound 63] : 93.4
COc1ccc(-c2ccc3nccc(Nc4cccc5[nH]ncc45)c3c2)cc1C=O [Compound 116] : 88.4
Fc1ccc(-c2ccc3ncnc(Nc4cccc5[nH]ncc45)c3c2)cc1F [Compound 85] : 83
Clc1ccc(-c2ccc3ncnc(Nc4cccc5[nH]ncc45)c3c2)cc1 [Compound 80] : 77.2

This collection of values is drawn from patent US8785459B2.
